Target: human emopamil binding protein and human 7-dehydrocholesterol reductase co-expressing cell membrane (Homo sapiens (Human), UniProt Q15125)
Sequence (Q15125 whole entry): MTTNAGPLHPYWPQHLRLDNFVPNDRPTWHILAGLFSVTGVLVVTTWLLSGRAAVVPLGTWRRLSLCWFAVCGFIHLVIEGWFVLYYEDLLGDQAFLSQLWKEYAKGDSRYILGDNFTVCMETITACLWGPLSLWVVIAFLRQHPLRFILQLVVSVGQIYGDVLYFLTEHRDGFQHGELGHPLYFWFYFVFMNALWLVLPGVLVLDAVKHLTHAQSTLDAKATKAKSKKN
property name: Ki (nM)

Reference set, count: 3
What value of Ki has been recorded for this entry: C[C@@H](Cc1ccc(C(F)(F)F)nc1)CN1CCC2(CC1)CS(=O)(=O)C2 (single isomer, unassigned) [Example 203*]
51.9

Query CC(C)(Cc1ccc(C(F)(F)F)nc1)CN1CCC2(CC1)CS(=O)(=O)C2 [Example 152] next
16

Query C[C@@H](CN1CCC2(C1)CS(=O)(=O)C2)Oc1ccc(C(F)(F)F)cc1 (single isomer, unassigned) [115B*] next
13.5

(1) O=S1(=O)CC2(CCN(CC3(Oc4ccc(C(F)(F)F)cc4)CCCC3)CC2)C1 [Example 202]
(2) CC(Cc1ccc(C2(C)CC2)cc1)CN1CCC2(C1)CS(=O)(=O)C2 (racemic) [Compound 111A]
Min Ki? 1 | 2 Answer = label.
2
(2: 8.57 nM, 1: 14.7 nM)

(A) C[C@H](Cc1ccc(C2CCC2)cc1)CN1CCC2(C1)CS(=O)(=O)C2 (single isomer, unassigned) [109B*]
(B) CC(C)n1nc(C(F)(F)F)cc1OCCN1CCC2(CC1)CS(=O)(=O)C2 [Compound 239]
(C) C[C@@H](CN1CCC2(CC1)CS(=O)(=O)C2)Oc1ccc(C(F)(F)F)cc1 (single isomer, unassigned) [227A*]
(D) CC(C)(Cc1ccc(C(F)(F)F)nc1)CN1CC[C@@]2(CCS(=O)(=O)C2)C1 (single isomer, unassigned) [Compound 148B]
Reorder: Ki, max to min. // respond by listing labels in the order requested
B, D, C, A
(B: 41.9 nM, D: 28.6 nM, C: 15.3 nM, A: 6.54 nM)

---

Target: human emopamil binding protein and human 7-dehydrocholesterol reductase co-expressing cell membrane (Homo sapiens (Human), UniProt Q15125)
property name: Ki (nM)

What value of Ki has been recorded for this entry: O=S1(=O)CC2(CCN(CCOc3cnc([C@H]4CCC[C@@H](C(F)(F)F)C4)nc3)CC2)C1 (relative stereo) [Compound 248B]
31.6

Query CC(C)(CN1CCC2(CC1)CS(=O)(=O)C2)Oc1ccc(F)c(F)c1 next
13.9

Query CC(C)(CN1CCC2(C1)CS(=O)(=O)C2)Oc1ccc(C2CCC2)cc1 next
11.8

(I) C[C@H](CN1CCC2(CC1)CS(=O)(=O)C2)Oc1ccc(C(F)(F)F)cc1 (single isomer, unassigned) [227B*]
(II) O=S1(=O)CC2(CCN(CC[C@@H](F)c3ccc(C(F)(F)F)cc3)C2)C1 (single isomer, unassigned) [Compound 122A]
Min Ki? I | II Answer = label.
I

(A) O=S1(=O)CC2(CCN(CCOc3ccc(-c4ccc(C(F)(F)F)nc4)cc3)CC2)C1
(B) CC(Cc1ccc(C2CC2(C)C)cc1)CN1CCC2(C1)CS(=O)(=O)C2 (racemic)
(C) CC(C)(Cc1cncc(C(F)(F)F)c1)CN1CCC2(C1)CS(=O)(=O)C2
(D) C[C@H](CN1CCC2(CC1)CS(=O)(=O)C2)Oc1ccc(C(F)(F)F)nc1 (single isomer, unassigned) [Example 207B*]
Order by Ki, ascending. // respond by listing labels in the order requested
B, A, C, D
(B: 8.31 nM, A: 14.1 nM, C: 24.6 nM, D: 65.3 nM)

(P) C[C@H](CN1CCC2(CC1)CS(=O)(=O)C2)Oc1ccc(F)c(F)c1 (single isomer, unassigned) [221B*]
(Q) CC(C)n1nc(C(F)(F)F)cc1C[C@H](C)CN1CCC2(C1)CS(=O)(=O)C2 (single isomer, unassigned) [235B*]
(R) O=S1(=O)CC2(CCN(CCOc3ccc(F)cc3F)CC2)C1
Reorder: Ki, max to min. // respond by listing labels in the order requested
R, Q, P
(R: 28.9 nM, Q: 17.1 nM, P: 10.6 nM)
